Molecular target: Tau
Assay: rat primary cortical neurons, FLIPR, 25 uM ASO
Bases are written 5' to 3'; sugars and linkages follow in the same order, as letters with counts (s phosphorothioate, o phosphodiester; PS: all linkages phosphorothioate). The collection does not say whether C is 5-methylated. l = locked nucleic acid (LNA); d = 2'-deoxy (DNA)
EXPERIMENTAL_READOUT: calcium oscillation score

Quick batch: calcium oscillation score for everything below.
1. TTTGTAGACTATTT (sugars l3 d8 l3, PS)
2. TAAGTGATTAACCAATTAAC (sugars l3 d14 l3, PS)
3. AATTTGGAAAGATGAAATTT (sugars l3 d14 l3, PS)
4. ACTGTTACACATTTATC (sugars l4 d9 l4, PS)
5. ACCCATTATCTGCTCC (sugars l3 d11 l2, PS)
6. TTCAGGTCTGGCATGG (sugars l3 d10 l3, PS)

Output line:
1: 90.7 % of control; 2: 27.2 % of control; 3: 0 % of control; 4: 79.8 % of control; 5: 50.9 % of control; 6: 1.9 % of control
